Values compiled from patent US20230002757A1.

Target: KLH (Keyhole Limpet Hemocyanin) (keyhole limpet)
Assay: ELISA on KLH
pEC50: −log10 of the molar value.
parameter: pEC50

- binder: "NGS602-OLIGO_151 (VHH) VHH: EVQLVESGGGLVQPGGSLRLSCTASGFTLSTSPVSWARQAPGKGPEWLAGIYSDGRTSNLVSLRGRFTISRDNAKNTVYLQMNSLLPEDTALYYCAIGAAAVGGLRGQGTQVTVSS"
  pEC50: 9.39

P: NGS602-OLIGO_2 (VHH) VHH: QVQLVESGGGLVQPGGSLRLSCAASESIRSIYAMGWYRQAPGKQRELVALVTDDGSTDYVDSVKGRFTVSRDSAKNTVYLQMNSLKPEDTAVYHCYVEGSTHYDPVREYWGKGTLVTVSS
Q: NGS602-OLIGO_186 (VHH) VHH: QVQLAESGGGLVQAGDSLRLSCAASGRSVSSYAMGWFRQAPGKEREFVAAISWSGESTHYADSVKGRFTISRDNAENTVYLQMNSLKPEDTAVYYCASYLSGHYYFGIGRDPPFGSWGQGTQVTVSS
R: NGS602-OLIGO_359 (VHH) VHH: QVQLVESGGGLVQPGGSLRLSCAASGYSLSFYAMGWYRQSPGKQREVVARIAGPGVTNYADSVMGRFTISRDNAKNMVYLQMNSLEPEDTAVYYCNAGGTRWSVGDYWGKGTLVTVSS
### Prompt Task for the reader: rank each entry by its pEC50, from the minimum upward. Answer format: the labels, in the requested order.
### Response P, R, Q
(P: 8.76, R: 9.21, Q: 9.55)
